Data provenance is patent US11850247B2.

- targetOfAssay: covalently-crosslinked hexameric CA A14C/E45C/W184A/M185A (CA121) (Human immunodeficiency virus type 1 group M subtype B, UniProt P12493, A146C/E177C/M317A/W316A)
- experimentDescription: Thermal shift assay (TSA), CA hexamer stability
- Assay type: binding, HIV-1
- appliedConditions: compound 20 μM, ΔTm=Tm−T0 vs DMSO
readoutKind: TSA ΔTm (° C.)
Please report the result as a number followed by the unit.

Known TSA ΔTm (° C.) results, listed for orientation:
molecule: Cc1cn(CC(=O)N[C@@H](Cc2ccccc2)C(=O)N(C)c2ccc(Cl)cc2)c(=O)[nH]c1=O [Example 44]
TSA ΔTm (° C.): 1.7 °C
//
molecule: Cc1ccc(C)c2c1NC(=O)C2CC(=O)N[C@@H](Cc1ccccc1)C(=O)N(C)c1ccc(Cl)cc1 (stereo partly shown) [Example 8]
TSA ΔTm (° C.): −1.3 °C
//
molecule: Cc1ccc(N(C)C(=O)[C@H](Cc2ccccc2)NC(=O)Cn2cc(C)c(=O)[nH]c2=O)cc1 [Example 43]
TSA ΔTm (° C.): 0.6 °C
//
molecule: CN(C(=O)[C@H](Cc1ccccc1)NC(=O)CNC(=O)c1ccccc1)c1ccccc1 [Example 34]
TSA ΔTm (° C.): 1.3 °C
//
molecule: Cc1cccc2c1NC(=O)C2CC(=O)N[C@@H](Cc1ccccc1)C(=O)N(C)c1ccc(Cl)cc1 (stereo partly shown) [Example 2]
TSA ΔTm (° C.): −0.4 °C
//
molecule: CCn1cc(CC(=O)N[C@@H](Cc2ccccc2)c2ncccc2-c2ccc(Cl)cc2)c2cc(OC)ccc21 [Example 58]
TSA ΔTm (° C.): 5.9 ± 0.2 °C

Query string: State the recorded TSA ΔTm (° C.) for this entry: Cc1ccc(C)c2c1NC(=O)C2CC(=O)N[C@@H](Cc1ccccc1)C(=O)N(C)c1cccc(Cl)c1 (stereo partly shown) [Example 9]
Result string: −2.4 °C

Query string: Query: TSA ΔTm (° C.); subject: Cc1cn(CC(=O)N[C@@H](Cc2ccccc2)C(=O)N(C)c2ccc(F)cc2)c(=O)[nH]c1=O [Example 46]
Result string: 0 °C

Query string: TSA ΔTm (° C.) lookup needed for Cc1ccc(N(C)C(=O)[C@H](Cc2ccccc2)NC(=O)Cc2ccc3ccccc3c2)cc1 [Example 11] , thanks.
Result string: 6.4 °C

Query string: Request the reported TSA ΔTm (° C.) associated with CN(C(=O)[C@H](Cc1ccccc1)NC(=O)CN1C(=O)NC2(CCCCC2)C1=O)c1ccccc1 [Example 22]
Result string: 1.3 °C

Query string: Any idea what its TSA ΔTm (° C.) is? The molecule is Cc1ccc(N(C)C(=O)[C@H](Cc2ccccc2)NC(=O)CNC(=O)c2ccccc2)cc1 [Example 35]
Result string: 5.0 °C
